- Test system: AAK1
- condition.info: concentration: 1 μM, replicates: in singlicate; n = 1;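 note: KINOMEscan kinase panel screen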
endpoint.label: %Inh (%)
The answer is to be given in %; state only the numeric part.

Record request: %Inh value, item COc1cccc2c(-c3ccncc3)c(-c3ccc(F)cc3)nn12 [GW468513] 10

May I ask what %Inh has been recorded for Cn1cc(-c2ccc3c(c2)CCN3C(=O)Cc2cc(F)cc(C(F)(F)F)c2)c2c(N)ncnc21 [GSK2635225] ? 10

Which %Inh is listed for Cc1ccc(O)cc1Nc1ccnc2ccc(C(C)(C)C)cc12 [GW856805] ? 10

====

- System: ASK1
- Construct: gene MAP3K5
- condition.info: concentration: 1 μM, replicates: in singlicate; n = 1
Kindly state %Inh for each of the entries shown.
API: value field is a number in %; no unit string.

Would you kindly share the measured %Inh for Nc1ncc(-c2ccc3nccc(-c4ccncc4)c3c2)cc1S(=O)(=O)N1CCCCC1 ? 14

Requested read-out: %Inh. Entry: COc1cccc(C2=C(Nc3cccc(O)c3)C(=O)NC2=O)c1 7

Find the recorded %Inh belonging to O=C(Nc1n[nH]c2nc(-c3ccccc3)ccc12)C1CC1 and report it. 18
